Assay: n-octanol-PBS partition coefficient, logP of the compound
Type: physicochemical
assay.readout: logP

P. COc1cc2ncnc(Nc3cccc(Br)c3)c2cc1OCC[18F]
Q. COc1cc2ncnc(Nc3ccc(F)c(Cl)c3)c2cc1OCC[18F]
R. C#Cc1cccc(Nc2ncnc3cc(OC)c(OCC[18F])cc23)c1
// query hey, can you rank those molecules up there by logP? biggest number first please Output spec: a listing of the labels in the requested order.
// result R, P, Q
